So I've got a bunch of molecules here, and I need their growth values.
# System: M14 melanoma
# assay.name: NCI-60 one-dose screen, 48 h (100 = growth as untreated, 0 = no growth, -100 = all killed)
# condition.info: 10 µM unless noted
Compounds without any hit were thinned out: in the full panel of roughly 83,000, 20% have a hit.
Numbers only, in %.

Which growth is reported for this molecule? CC[C@]12C=CCN3CC[C@@]4(c5cc(NC(=O)COc6cc(O)c7c(=O)cc(-c8ccccc8)oc7c6)c(OC)cc5N(C)[C@H]4[C@@](O)(C(=O)OC)[C@@H]1OC(C)=O)[C@@H]32
-75.4

Provide growth values for the following items, in order.
1. O=C(Nc1nc2ccc([N+](=O)[O-])cc2s1)Nc1ccccc1Cl
2. COc1cc(-c2nn(C(C)(C)C)cc2-c2ccnc(NCCCNS(=O)(=O)c3ccc(C)cc3)n2)ccc1Cl
3. CN(C)CCN(C)c1ccc2ncc(C#Cc3cncc(C(=O)Nc4ccc(CN5CCN(C)CC5)c(C(F)(F)F)c4)c3)n2n1
4. Cc1ccc(C(=O)NN2C(=O)/C(=C/C=C/c3ccco3)SC2=S)cc1
5. CC(=O)c1ccc(Nc2nc(SCC(C)C)nc(-c3ccc(F)cc3)c2C#N)cc1
6. COc1ccc(-n2c(SCc3nnc(NC(=O)c4ccc(Br)cc4)s3)nc3cc(OC)c(OC)cc3c2=O)cc1
7. Cc1ccc(NC(=O)CNc2cc(C(N)=O)cc(F)c2C)c(Cl)c1
8. COc1ccc([C@H]2[C@H](O)C(=O)N2c2cc(OC)c(OC)c(OC)c2)cc1F

1. 45.1
2. 90.5
3. -80.8
4. 99.8
5. 115
6. 92.5
7. 103
8. 2.83

====

Field: growth. Provide a value for each of the compounds that follow.
# System: SK-OV-3 ovarian
# assay.name: NCI-60 one-dose screen, 48 h (100 = growth as untreated, 0 = no growth, -100 = all killed)
# condition.info: 10 µM unless noted
Compounds without any hit were thinned out: in the full panel of roughly 83,000, 20% have a hit. Activity calls are given as the source filed them. The calls were made as follows: active = growth percent below 10; inactive = the rest.

Here are 2 compounds together with their reported answers.
Need growth of Cc1ccc(CSc2nc(-c3ccc(Cl)cc3)c(C#N)c(N3CCNCC3)n2)cc1 , thanks.
117% (inactive)

Entry to check: COc1ccc(N2C(=O)c3cc(Cl)ccc3NC2SCc2ccccc2)cc1 (stereo not drawn)
101% (inactive)

List reported growth for each of these compounds:
1. CC[C@@H](CO)Nc1ccc2ncc(C#Cc3cncc(C(=O)Nc4ccc(CN5CCN(C)CC5)c(C(F)(F)F)c4)c3)n2n1
2. N#Cc1cccc(CN2CCC3=C(C2)C(=O)N(Cc2ccc(Cl)cc2)C2=NCCN23)c1

1. -40% (active)
2. 27.8% (inactive)

====

# Test system: U251 CNS
# assay.name: NCI-60 one-dose screen, 48 h (100 = growth as untreated, 0 = no growth, -100 = all killed)
# condition.info: 10 µM unless noted
About 83,000 compounds went through this panel and 20% of them were active in at least one assay; those are over-represented in the sample as a whole.
readout.label: growth (%)
Numbers only, in %.

Need growth, item Cc1cccc2c3c(sc12)C(c1ccc(F)cc1)C(C#N)=C(/N=C/c1ccc(Cl)cc1)O3 (stereo not drawn)
4.91

Cool, now Cc1cc(C)n(C(=O)c2sc(=S)n(-c3ccccc3)c2N=Nc2c(N)n[nH]c2N)n1
104

For the 3 molecules below, give their growth values.
1. COc1ccc(/C=C/C(=O)c2cccc(NC(=O)CSc3nc4ccccc4c(=O)n3-c3ccccc3)c2)cc1OC
2. Cc1occc1-c1nc2s/c(=C/c3ccc(-c4cc(C(F)(F)F)ccc4Cl)o3)c(=O)n2n1
3. Cc1cc(S(=O)(=O)N(C)C)cc(NCC(=O)NC(=O)NCC(C)C)c1C

[101, 105, 108]

For each entry beneath this line, provide reported growth.
1. O=C(NNc1nc2cc(F)cc(F)c2n2cccc12)c1cnccn1
2. CC(C)(C)c1ccc(C(=O)Nc2sc3c(c2C(N)=O)CCC(O)C3)cc1 (stereo not drawn)
3. Cn1cc(CNc2nc3ccc(OC/C(=C/F)CN)cc3o2)ccc1=O
4. CS(=O)(=O)Nc1cc(-c2ccc3ncc(C#N)c(NCc4cccc(F)c4)c3c2)cnc1Cl

[16.2, 54, 106, 10.3]

Each of the following entries comes with a recorded value; kindly state growth for each.
1. CCO/C=N/C1=C(C#N)C(c2ccc(F)cc2)c2sc3c(CC)cccc3c2O1 (stereo not drawn)
2. CC1(COc2ccc3ncc(C#Cc4cncc(C(=O)Nc5cccc(C(F)(F)F)c5)c4)n3n2)COC1
3. Cn1cc(-c2nnc(N)nc2-c2c[nH]c3ccc(F)cc23)c2cc(F)ccc21
4. O=C(CN1CCN(c2cc(=O)[nH]c3ccc(F)cc23)CC1)Nc1ccc(Cl)cc1
5. Cc1c(F)cc(C(N)=O)cc1NCC(=O)Nc1ccc([N+](=O)[O-])cc1
6. COc1ccc(S(=O)(=O)NCCCNc2nccc(-c3cn(C(C)(C)C)nc3-c3ccc(Cl)c(OC)c3)n2)cc1

21.4
91.3
70.6
42.6
109
98.9

For each entry beneath this line, provide reported growth.
1. CCOC(=O)C1=NNC(c2ccc(Cl)cc2)C1C(=O)N1C(=S)NC(=O)C1CC(C)C (stereo not drawn)
2. NS(=O)(=O)c1ccc(Nc2cc(-c3ccccc3)nc(SCC(=O)c3ccccc3)n2)cc1
3. COc1cc2nc(Cl)nc(Nc3cccc(C4=Nc5c(N)nc(N)nc5NC(c5ccc(Cl)cc5)C4)c3)c2cc1OC (stereo not drawn)
4. CC1(C)CC[C@]2(C(=O)N3CCOCC3)CC[C@]3(C)C(=CC[C@@H]4[C@@]5(C)C/C(=C/c6ccccn6)C(=O)C(C)(C)[C@@H]5CC[C@]43C)[C@@H]2C1
5. N/C(=N\C(N)=N\c1nc2ccccc2s1)c1ccncc1Cl
6. CC/C(=C/c1c(O)cccc1OC)c1ccc2c(OC)cccc2[o+]1
7. Nc1cc(F)ccc1NC(=O)c1ccc(NC(=O)C/C=C/c2cccnc2)cc1
8. CC(=O)C1=C(C)NC(NN)=NC1c1cccc(Cl)c1 (stereo not drawn)

1: 105; 2: 100; 3: -52.4; 4: 80.7; 5: 31.8; 6: 99.5; 7: 34.1; 8: 95
